- assayed.target: SIRT1 (Homo sapiens, UniProt Q96EB6)
- Sequence (Q96EB6 1-747): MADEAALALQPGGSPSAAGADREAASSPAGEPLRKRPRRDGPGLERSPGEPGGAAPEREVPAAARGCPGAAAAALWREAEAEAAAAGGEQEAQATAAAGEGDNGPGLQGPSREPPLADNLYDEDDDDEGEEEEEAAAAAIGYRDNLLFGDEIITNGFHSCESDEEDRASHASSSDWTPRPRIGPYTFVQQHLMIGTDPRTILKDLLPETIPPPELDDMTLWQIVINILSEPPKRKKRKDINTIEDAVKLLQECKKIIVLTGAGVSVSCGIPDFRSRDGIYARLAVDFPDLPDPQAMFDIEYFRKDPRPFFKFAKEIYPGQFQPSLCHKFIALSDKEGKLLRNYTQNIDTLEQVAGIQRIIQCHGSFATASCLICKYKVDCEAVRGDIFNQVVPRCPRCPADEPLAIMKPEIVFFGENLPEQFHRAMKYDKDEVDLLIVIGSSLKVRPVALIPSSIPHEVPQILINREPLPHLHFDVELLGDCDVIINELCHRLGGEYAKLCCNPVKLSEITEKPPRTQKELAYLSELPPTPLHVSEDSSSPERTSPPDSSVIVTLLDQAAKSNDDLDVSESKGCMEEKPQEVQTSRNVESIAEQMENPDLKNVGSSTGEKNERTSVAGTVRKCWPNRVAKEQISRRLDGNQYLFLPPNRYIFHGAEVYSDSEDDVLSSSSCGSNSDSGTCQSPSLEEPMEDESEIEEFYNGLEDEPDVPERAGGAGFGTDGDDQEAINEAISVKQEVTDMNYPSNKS
- assay.comment: Trp mass spectrometry assay (SIRT1 activation)
- Type: biochemical
- condition.parameters: concentration of test compound that results in 150% activation of SIRT1; Trp peptide substrate
measure.name: Tryp AVG EC1.5 (μM)

Some compounds with known Tryp AVG EC1.5 (μM) results, for comparison:
compound | Tryp AVG EC1.5 (μM)
O=C(Nc1ccccn1)N1c2nc(-c3cncc(F)c3)ccc2N2CCC1CC2 [Example 570] | B (EC1.5 1-25 μM)
Cc1cncc(NC(=O)N2c3nc(N4CC[C@H](N(C)C)C4)ccc3N3CC[C@H]2C3)c1 [Example 243] | C (EC1.5>25 μM)
O=C(Nc1cc(-c2cnco2)ccn1)N1c2nc(-c3cccc(C(F)(F)F)c3)ccc2N2CC[C@H]1C2 [Example 589] | A (EC1.5<1 μM)
O=C(Nc1ccccn1)N1c2nc(-c3cccc(N4CC[C@H](F)C4)c3)ccc2N2CC[C@H]1C2 [Example 280] | A (EC1.5<1 μM)
CN(C)c1cccc(-c2ccc3c(n2)N(C(=O)Nc2ccc(F)cn2)[C@@H]2CCCN3C2)c1 [Example 253] | C (EC1.5>25 μM)
O=C(Nc1cncc(F)c1)N1c2nc(-c3ccnc(N4CC[C@H](F)C4)c3)ccc2N2CC[C@H]1C2 [Example 475] | A (EC1.5<1 μM)
Cc1ccc(-c2ccc3c(n2)N(C(=O)Nc2ccccn2)[C@H]2CCCN3C2)cn1 [Example 465] | B (EC1.5 1-25 μM)
O=C(Nc1ccncc1F)N1c2nc(-c3cccc(CC(O)CO)c3)ccc2N2CC[C@H]1C2 (stereo partly shown) [Example 357] | B (EC1.5 1-25 μM)
O=C(Nc1cnccn1)N1c2nc(-c3cccc(N4CCC(C(F)(F)F)C4)c3)ccc2N2CC[C@H]1C2 (stereo partly shown) [Example 319] | B (EC1.5 1-25 μM)
CN(C)c1ccc(-c2ccc3c(n2)N(C(=O)Nc2cnccn2)[C@H]2CCN3C2)cn1 [Example 458] | B (EC1.5 1-25 μM)

**Q:** So what does the record say about Tryp AVG EC1.5 (μM) for O=C(Nc1ccccn1)N1c2nc(N3CCCC(C(F)(F)F)C3)ccc2N2CCC[C@@H]1C2 (stereo partly shown) [Example 300] ?
**A:** C (EC1.5>25 μM)

**Q:** So what does the record say about Tryp AVG EC1.5 (μM) for CC(C)(C)OC(=O)N1CCC(c2cccc(NC(=O)N3c4nc(-c5cccc(C(F)(F)F)c5)ccc4N4CC[C@H]3C4)c2)C1 (stereo partly shown) [Example 592] ?
**A:** A (EC1.5<1 μM)

**Q:** So what does the record say about Tryp AVG EC1.5 (μM) for Cc1cc(-c2ccc3c(n2)N(C(=O)Nc2ccccn2)[C@H]2CCN3C2)ccn1 [Example 220] ?
**A:** A (EC1.5<1 μM)

**Q:** So what does the record say about Tryp AVG EC1.5 (μM) for CN(C)c1cccc(-c2ccc3c(n2)N(C(=O)Nc2cnccn2)[C@@H]2CCCN3C2)c1 [Example 266] ?
**A:** B (EC1.5 1-25 μM)

**Q:** So what does the record say about Tryp AVG EC1.5 (μM) for O=C(NCCc1ccccc1)N1c2nc(-c3cccc(C(F)(F)F)c3)ccc2N2CC[C@H]1C2 [Example 598] ?
**A:** B (EC1.5 1-25 μM)

**Q:** So what does the record say about Tryp AVG EC1.5 (μM) for COc1cc(NC(=O)N2c3nc(-c4cncc(F)c4)ccc3N3CCC2CC3)ncn1 [Example 579] ?
**A:** B (EC1.5 1-25 μM)
